Data provenance is paper PMC7158045.

Listed below: ΔTm at 10 µM values for each entry.
tested_target: ZmDRIK1-K217-S514 (Zea mays)
Construct: kinase domain, K217-S514
Sequence (C0P4K9 1-514): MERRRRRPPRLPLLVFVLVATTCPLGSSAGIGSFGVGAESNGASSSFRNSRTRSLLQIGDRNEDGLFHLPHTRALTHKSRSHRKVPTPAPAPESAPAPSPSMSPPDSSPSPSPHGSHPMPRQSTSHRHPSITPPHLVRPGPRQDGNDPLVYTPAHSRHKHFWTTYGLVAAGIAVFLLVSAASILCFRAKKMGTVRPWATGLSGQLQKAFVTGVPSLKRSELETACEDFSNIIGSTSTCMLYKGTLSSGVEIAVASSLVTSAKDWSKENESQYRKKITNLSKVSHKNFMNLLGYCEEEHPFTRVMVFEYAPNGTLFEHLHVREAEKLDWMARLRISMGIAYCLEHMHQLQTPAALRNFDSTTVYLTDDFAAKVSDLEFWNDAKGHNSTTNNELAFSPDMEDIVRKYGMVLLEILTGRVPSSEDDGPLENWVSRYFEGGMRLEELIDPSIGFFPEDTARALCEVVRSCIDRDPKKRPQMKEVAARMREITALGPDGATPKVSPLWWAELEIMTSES
assay_notes: biochemical
experimental_setup: read-out: dTm B, sheet ZmDRIK1-K217-S514;; DSF, Boltzmann fit, 0.1% DMSO
measure_name: ΔTm at 10 µM (°C)

compound: Cc1cc2c(F)c(Oc3ncnn4cc(OC[C@@H](C)OC(=O)[C@H](C)N)c(C)c34)ccc2[nH]1 [Brivanib Alaninate (BMS-582664)]
measure_name: ΔTm at 10 µM
quantity_unit: °C
numeric_readout: -0.426
--
compound: CCn1c(-c2nonc2N)nc2c(C#CC(C)(C)O)ncc(OC[C@H]3CCCNC3)c21 [GSK690693]
measure_name: ΔTm at 10 µM
quantity_unit: °C
numeric_readout: -0.204
--
compound: Cc1csc(-c2nnc(Nc3ccc(Oc4ncccc4-c4ccnc(N)n4)cc3)c3ccccc23)c1 [AMG-900]
measure_name: ΔTm at 10 µM
quantity_unit: °C
numeric_readout: -2.33
--
compound: Cc1[nH]c(/C=C2\C(=O)Nc3ccc(S(=O)(=O)Cc4c(Cl)cccc4Cl)cc32)c(C)c1C(=O)N1CCC[C@@H]1CN1CCCC1 [PHA-665752]
measure_name: ΔTm at 10 µM
quantity_unit: °C
numeric_readout: -0.843

----------
Listed next: entries and their corresponding ΔTm at 10 µM.
tested_target: ZmDRIK1-K217-S514 (Zea mays, UniProt C0P4K9)
Construct: kinase domain, K217-S514
assay_notes: biochemical
experimental_setup: read-out: dTm B, sheet ZmDRIK1-K217-S514;; DSF, Boltzmann fit, 0.1% DMSO
Structures can show the parent of a compound that is named as a salt.

compound: O=C(Nc1nc2cccc(-c3ccc(CN4CCS(=O)(=O)CC4)cc3)n2n1)C1CC1
ΔTm at 10 µM: -0.594 °C

compound: COC(=O)[C@]12CCC(C)(C)C[C@H]1[C@H]1C(=O)C=C3[C@@]4(C)C=C(C#N)C(=O)C(C)(C)[C@@H]4CC[C@@]3(C)[C@]1(C)CC2
ΔTm at 10 µM: -1.7 °C

compound: CN1CCCN(C(=O)c2cccc(-c3ccc(/C=C4/C(=O)Nc5ccc(Cl)cc54)o3)c2)CC1 [CX-6258 HCl]
ΔTm at 10 µM: -0.341 °C

compound: O=C1NC(=O)/C(=C/c2cccc(C(F)(F)F)c2)S1
ΔTm at 10 µM: -0.218 °C

compound: N#Cc1c(Oc2ccc(F)c(NC(=O)Cc3cccc(C(F)(F)F)c3)c2)ccc2nc(NC(=O)C3CC3)sc12
ΔTm at 10 µM: -2.01 °C

compound: Oc1ccc(-c2nc(-c3ccc(F)cc3)c(-c3ccncc3)[nH]2)cc1
ΔTm at 10 µM: 2.58 °C

compound: CSc1cccc(Nc2ncc3cc(-c4c(Cl)cccc4Cl)c(=O)n(C)c3n2)c1
ΔTm at 10 µM: -0.595 °C

compound: Cc1ccc(F)c(NC(=O)Nc2ccc(-c3cccc4[nH]nc(N)c34)cc2)c1
ΔTm at 10 µM: -0.66 °C

compound: NC1(c2ccc(-c3nc4ccn5c(=O)[nH]nc5c4cc3-c3ccccc3)cc2)CCC1 [MK-2206 2HCl]
ΔTm at 10 µM: -0.181 °C

compound: S=C(NCc1ccc2c(c1)OCO2)N1CCN(c2ncnc3c2oc2ccccc23)CC1
ΔTm at 10 µM: -3.2 °C

compound: CNC(=O)c1ccccc1Nc1nc(Nc2ccc(N3CCOCC3)cc2OC)ncc1Cl
ΔTm at 10 µM: -0.321 °C

compound: COc1cc(OC)c(/C=C/S(=O)(=O)Cc2ccc(OC)c(NCC(=O)O)c2)c(OC)c1
ΔTm at 10 µM: -0.421 °C

compound: C[C@@H]1CN(CC(=O)Nc2ccc3c(c2)Cc2cccc(-c4cc(=O)cc(N5CCOCC5)o4)c2S3)C[C@H](C)O1
ΔTm at 10 µM: -0.426 °C

compound: CC(C)(C)c1nc(-c2cccc(NS(=O)(=O)c3c(F)cccc3F)c2F)c(-c2ccnc(N)n2)s1
ΔTm at 10 µM: -0.366 °C

compound: Nc1nccc(Oc2ccc(NC(=O)c3c[nH]cc(-c4ccc(F)cc4)c3=O)cc2F)c1Cl
ΔTm at 10 µM: -19 °C
